experiment.notes: log P by HPLC on reversed-phase column (C 18), EEC Directive 79/831 Annex V.A8
Assay type: physicochemical
stated.conditions: 40° C., 0.1% aqueous formic acid and acetonitrile, linear gradient 10% to 90% acetonitrile
logP vs 4: at or above is rule met, below is rule not met.

Here's what some known entries look like.
                                   molecule   class_label
0  CC1=C(C(=O)NC[Si](C)(C)c2ccccc2Cl)SCCO1 [Example 42]  rule not met
1  C[Si](C)(Cc1ccccc1)CN(C(=O)c1nccnc1C(F)(F)F)C1CC1 [Example 93]      rule met
2  C[Si](C)(Cc1ccccc1Cl)CN(C(=S)c1cccnc1C(F)F)C1CC1 [Example 127]      rule met
3  C[Si](C)(Cc1cccc(Cl)c1)CN(C(=O)c1cccnc1C(F)F)C1CC1 [Example 104]      rule met

[in] // inclusive: logP at least 4? input: C[Si](C)(CN(C(=O)c1cccnc1Cl)C1CC1)c1ccc2ccccc2c1 [Example 75]
[out] rule met

[in] Decide: logP of C[Si](C)(CN(C(=O)c1cccnc1C(F)(F)F)C1CC1)c1ccc2ccccc2c1 [Example 78] >= 4?
[out] rule met

The reported measurements were obtained from patent US9617286B2.
